# System: SK-MEL-28 melanoma
# run.description: NCI-60 one-dose screen, 48 h
# experimental.parameters: 10 µM unless noted
Compounds without any hit were thinned out: in the full panel of roughly 83,000, 20% have a hit. Activity calls are given as the source filed them. The calls were made as follows: active = growth percent below 10; inactive = the rest.
Use one of these outcomes when replying: label 1 (active), label 0 (inactive)

Exercise: Assay result, entry CCCCN(CCCC)CC(C)(C)C(O)c1ccc(OC)c2ccccc12 (centres undefined) — outcome?
Solution: label 0

###

# System: DU-145 prostate
# run.description: NCI-60 one-dose screen, 48 h (100 = growth as untreated, 0 = no growth, -100 = all killed)
# experimental.parameters: 10 µM unless noted
The panel holds about 83,000 compounds, 20% with a hit somewhere; the sample as a whole holds those more often.
measured.attribute: growth (%)
Give just the numeric value; % need not be written.

Previously resolved entries follow.
- molecule: "O=C(c1ccccc1)c1c(/C=C/c2ccc(Cl)cc2)nc2ccccc2c1/C=C/c1cccs1"
  unit.string: "%"
  growth: 107
- molecule: "O=C1Nc2ccccc2/C1=C/c1cn(C(=O)c2c(Cl)cccc2Cl)c2ccccc12"
  unit.string: "%"
  growth: 59.3
- molecule: "CC1(C)OC2C(CO[Si](C)(C)C(C)(C)C)OC(n3c(I)c(C#C[Si](C)(C)C)c(=O)[nH]c3=O)C2O1 (stereo not given)"
  unit.string: "%"
  growth: 107

Exercise: Would you kindly share the measured growth for COc1ccc(-c2nc(SCC(=O)Nc3nc(-c4ccccc4)cs3)[nH]c(=O)c2C#N)cc1 ?
Solution: 118

Exercise: Would you kindly share the measured growth for Cc1ccc(-c2cc(-c3cccnc3)[nH]c(=O)c2C#N)cc1 ?
Solution: 110

Exercise: Would you kindly share the measured growth for O=C(Nc1ccc(Cl)cc1)Nc1ccc(Cl)c(C(F)(F)F)c1 ?
Solution: 20.2

Exercise: Would you kindly share the measured growth for CC(C)=C[C@@H]1c2c(c3ccccc3n(C)c2=O)O[C@H]2c3c(c4ccccc4n(C)c3=O)OC(C)(C)[C@@H]12 ?
Solution: 106

Exercise: Would you kindly share the measured growth for Cc1cc(NCCCCNc2ccnc3cc(Cl)ccc23)nc(Nc2ccc(C(=O)N3CCCCC3)cc2)n1 ?
Solution: 21.8

Exercise: Would you kindly share the measured growth for N=C(N)c1ccc(-c2ccc(-c3cncc4ccccc34)s2)s1 ?
Solution: -90

Exercise: Would you kindly share the measured growth for C=CCn1c(C)nc2cc(Nc3nc(Cl)nc4ccccc34)ccc21 ?
Solution: 105

###

# Tested on: SNB-19 CNS
# run.description: NCI-60 one-dose screen, 48 h (100 = growth as untreated, 0 = no growth, -100 = all killed)
# experimental.parameters: 10 µM unless noted
About 83,000 compounds went through this panel and 20% of them were active in at least one assay; those are over-represented in the sample as a whole.
measured.attribute: growth (%)
Give just the numeric value; % need not be written.

Previously resolved entries follow.
- compound: "CN(C)c1ccc(-c2cc(-c3ccc(Nc4nc(Nc5ccc(Cl)cc5)nc(Nc5ccc(Cl)cc5)n4)cc3)no2)cc1"
  growth, %: 65.7
- compound: "Cc1ccc(C2SCC(=O)N2Cc2ccccc2)cc1 (stereo not given)"
  growth, %: 98.9
- compound: "O=C(NCCCNc1cc(-c2cn(-c3ccccc3)nc2-c2cccc(O)c2)ccn1)c1cccc(O)c1"
  growth, %: 79.7

Exercise: Would you kindly share the measured growth for COc1cccc(-c2nn(-c3ccccc3)cc2-c2ccnc(NCCNC(=O)c3ccccc3)c2)c1 ?
Solution: 72.3

Exercise: Would you kindly share the measured growth for N#C/C(=C\c1ccc2c(c1)OCO2)n1nnc2cc(F)c(F)cc21 ?
Solution: 82.3

Exercise: Would you kindly share the measured growth for COc1cc(C2CC(c3cc(OC)c(OCCCOc4ccc(-n5c(/C=C/c6ccccc6)nc6ccccc6c5=O)cc4)c(OC)c3)=NO2)cc(OC)c1OC (stereo not given) ?
Solution: 110

###

# Test system: SF-295 CNS
# run.description: NCI-60 one-dose screen, 48 h (100 = growth as untreated, 0 = no growth, -100 = all killed)
# experimental.parameters: 10 µM unless noted
Compounds without any hit were thinned out: in the full panel of roughly 83,000, 20% have a hit.
Note to self: values exactly at 80% are label 1. So growth at or above 80% is label 1, below is label 0.

Below are worked cases with known answers.
- molecule: "Cc1ccc(NS(=O)(=O)c2ccc3c(c2)C2OCCC2C(c2ccc(C(=O)C(C)C)cc2)N3)cc1C (stereo not given)"
  group.label: "label 0"
- molecule: "COc1ccc(-c2nc(SC(C)C)nc(NNC(N)=S)c2C#N)cc1"
  group.label: "label 0"

Exercise: growth >= 80% for O=C(CCc1nnc(CN(c2ccccc2)c2ccccc2)o1)c1nc2ccccc2[nH]1 ?
Solution: label 1

Exercise: growth >= 80% for O=Cc1c[nH]c2ccc(-c3csc4ccccc34)cc12 ?
Solution: label 0

###

# System: NCI-H226 lung
# run.description: NCI-60 one-dose screen, 48 h
# experimental.parameters: 10 µM unless noted
This is part of a sample that, as a whole, favours compounds with a hit. Of some 83,000 tested, about 20% had one in any assay. The source made the active and inactive calls. The calls were made as follows: active = growth percent below 10; inactive = the rest.
Use one of these outcomes when replying: TRUE (active), FALSE (inactive)

Exercise: Assay result, entry N=C1CCC(=N)c2c1c(O)c1ccccc1c2O — outcome?
Solution: FALSE

Exercise: Assay result, entry O=C(/C=C/c1c(Cl)nc2sccn12)c1nccs1 — outcome?
Solution: FALSE

Exercise: Assay result, entry Cc1nn(-c2ccccc2)c(Oc2ccc(Cl)cc2)c1/C=N\N=c1/sc2ccccc2n1C — outcome?
Solution: FALSE

Exercise: Assay result, entry c1coc(-c2c3ccc(=[N+]4CCCCC4)cc-3oc3cc(N4CCCCC4)ccc23)c1 — outcome?
Solution: TRUE

Exercise: Assay result, entry N=C1C(c2nc(-c3ccc(Br)cc3)cs2)=C(O)CN1Cc1cccnc1 — outcome?
Solution: FALSE

###

# System: UO-31 renal
# run.description: NCI-60 one-dose screen, 48 h
# experimental.parameters: 10 µM unless noted
About 83,000 compounds went through this panel and 20% of them were active in at least one assay; those are over-represented in the sample as a whole. Active and inactive are the calls of the source. How the source made its calls: active means growth percent below 10; inactive means the rest.
Use one of these outcomes when replying: active, inactive

Below are worked cases with known answers.
- molecule: "CC(=O)OC[C@H]1OC(Sc2sc(C(=O)c3ccc(Br)cc3)c(N)c2-c2nc3ccccc3s2)[C@H](OC(C)=O)[C@@H](OC(C)=O)[C@@H]1OC(C)=O (stereo partly specified)"
  group.label: "inactive"
- molecule: "N#C/C(=C\\c1ccc(Br)cc1)n1nnc2cc(F)c(F)cc21"
  group.label: "inactive"
- molecule: "N/C(=N\\c1nc2ccccc2s1)NC(=O)Nc1cccc(Cl)c1"
  group.label: "inactive"
- molecule: "COc1cc(N2C(=O)c3nccnc3C2=O)cc(OC)c1OC"
  group.label: "inactive"
- molecule: "COc1cc(C2CC(=O)Nc3c2c(C)nn3-c2nc3ccccc3[nH]2)cc2c1OCC(=O)N2 (stereo unspecified)"
  group.label: "inactive"

Exercise: Assay result, entry CC(=O)N1C(=S)NC(=O)C1Cn1c(-c2ccccc2)nc2ccccc21 (stereo unspecified) — outcome?
Solution: inactive

Exercise: Assay result, entry Cc1ccc(Cl)c(NS(=O)(=O)c2ccc(-c3cnc(C4CC4)o3)cc2)c1 — outcome?
Solution: inactive

Exercise: Assay result, entry COc1ccc2[nH]c(O)c(/C=c3/cc4c(c(-c5ccc(F)c(OC)c5)n3)=Nc3ccccc3-4)c2c1 — outcome?
Solution: inactive

Exercise: Assay result, entry Clc1cccc(Cl)c1C(Nc1nc2ccccc2s1)Nc1nc2ccccc2s1 — outcome?
Solution: inactive

Exercise: Assay result, entry C=CCn1c(C)nc2cc(Nc3nc(N4CCCC4)nc4ccccc34)ccc21 — outcome?
Solution: inactive

Exercise: Assay result, entry O=C(c1ccccc1)c1c(/C=C/c2ccc(Cl)cc2)nc2ccccc2c1/C=C/c1cccs1 — outcome?
Solution: inactive

Exercise: Assay result, entry Cn1cc(-c2csc(-c3cccc(F)c3)n2)c2cccnc21 — outcome?
Solution: active

Exercise: Assay result, entry COc1ccc(CNC(=O)C(O)C(Cc2ccccc2)NC(=O)c2[nH]c3ccccc3c(=O)c2C)cc1OC (stereo unspecified) — outcome?
Solution: inactive

Exercise: Assay result, entry NCCCNc1nc2ccccc2c2c(=O)c3cccc(Cl)c3sc12 — outcome?
Solution: active

###

# System: OVCAR-3 ovarian
# run.description: NCI-60 one-dose screen, 48 h (100 = growth as untreated, 0 = no growth, -100 = all killed)
# experimental.parameters: 10 µM unless noted
# Description: Growth inhibition of the OVCAR-3 human tumor cell line is measured as a screen for anti-cancer activity. Cells are grown in 96 well plates and exposed to the test compound for 48 hours. Compounds are tested at a single concentration, which is 10^-5 M for most compounds. The reported endpoint is percent growth (GI% or GIPRCNT), where numbers from 0 - 100% represent growth inhibition, and numbers from -100% - 0 represent cell death. For example, a value of 40 represents 60% growth inhibition. […]
The panel holds about 83,000 compounds, 20% with a hit somewhere; the sample as a whole holds those more often.
measured.attribute: growth (%)
Give just the numeric value; % need not be written.

Previously resolved entries follow.
- compound: "Oc1c(CN2CCCC2)cc(COCc2ccc(Br)cc2)c2cccnc12"
  growth / %: -4.02
- compound: "O=[N+]([O-])c1ccc(C2CC(c3ccccc3)=Nc3ccccc3S2)cc1 (centres undefined)"
  growth / %: 83.9

Exercise: Would you kindly share the measured growth for O=C(CCCCCCN1CC(=O)N2[C@@H](c3ccccc3Cl)c3[nH]c4ccccc4c3C[C@H]2C1=O)NO ?
Solution: 56.9

Exercise: Would you kindly share the measured growth for Cc1c(Cl)cc(-n2c(=O)c3ccccc3c3ccccc3c2=O)cc1Cl ?
Solution: 127

Exercise: Would you kindly share the measured growth for Cc1nc2ccccc2n1CC1NC(=O)NC1=O (centres undefined) ?
Solution: 105

Exercise: Would you kindly share the measured growth for COc1ccc(-c2nc(SCCC(C)C)nc(N/N=C\c3cccc([N+](=O)[O-])c3)c2C#N)cc1 ?
Solution: -30.4

Exercise: Would you kindly share the measured growth for O=C(Nc1ccccc1)Nc1cccc(Oc2nnc(Cl)c3ccccc23)c1 ?
Solution: 25.4

Numbers sourced from PubChem BioAssay (NCI).
